Reported protein stability index values for a set of variants
B1: KCNAB2 (parent)
chain: IPPYSRASLKGYQWLKDKILSEEG

Variants of: B1
Assay: protein stability index of a GFP-peptide fusion (GPS, HEK-293T) (PSI 1-6); higher = more stable;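 also: lentivirally expressed fusions sorted by FACS into six bins by GFP to DsRed ratio, PSI derived from sequencing read proportions per bin multiplied by bin number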
Details: c terminus: a fixed tail appended

| change | protein stability index |
| --- | --- |
| E23I | 2.62 |
| G11I | 2.37 |
| W14R | 3.73 |
| P2I | 1.25 |
| G24T | 1.99 |
| I1T | 2.99 |
| L15W | 2.18 |
| R6I | 2.06 |
| Q13Y | 1.53 |
| G24Y | 1.48 |
| G24K | 2.61 |
| Y12I | 2.45 |
| G24W | 1.35 |
| L15Q | 3.52 |
| K18P | 2.83 |
| K10M | 2.4 |
| G24F | 1.99 |
| G11P | 2.46 |
| L20T | 3.54 |
| P3E | 2.5 |
| W14Q | 3.04 |
| Y4R | 2.35 |
| Y12R | 3.44 |
| G11K | 1.78 |
| R6G | 2.53 |
| A7C | 1.59 |
| L9F | 2.61 |
| K10L | 2.37 |
| K10H | 2.91 |
| P3Y | 2.53 |
| K18Y | 2.05 |
| S21Q | 3.31 |
| L15K | 3.22 |
| L20A | 3.71 |
| Y12Q | 3.18 |
| K16G | 3.26 |
| A7Y | 1.46 |
| A7I | 1.93 |
| K10D | 3.49 |
| Y4I | 2.29 |
| P2M | 1.37 |
| L15T | 3.08 |
| K16Y | 1.84 |
| K10C | 1.72 |
| W14T | 3.3 |
| K16W | 2.29 |
| G24L | 1.43 |
| L20Q | 2.8 |
| S21C | 2.42 |
| E23Q | 2.39 |
| K10T | 3.38 |
| L9D | 2.44 |
| W14H | 3.57 |
| E23S | 4.83 |
| E23F | 3.45 |
| Q13R | 2.49 |
| L9C | 1.77 |
| W14F | 4.47 |
| S21I | 2.3 |
| I1H | 2.59 |
| L9Y | 2.4 |
| E22T | 1.97 |
| Q13G | 1.93 |
| I19Y | 2.58 |
| I19Q | 2.12 |
| G11H | 2.19 |
| L15H | 3.73 |
| S5H | 2.63 |
| L15N | 3.64 |
| Y4N | 3.1 |
| G11N | 2.68 |
| L9P | 3.25 |
| E22C | 2.09 |
| A7D | 3.15 |
| I19R | 3.32 |
| I19V | 3.17 |
| S21W | 3.22 |
| Q13D | 3.63 |
| K18E | 2.95 |
| K16N | 3.29 |
| S5R | 1.82 |
| R6S | 3.06 |
| L9E | 3.2 |
| K16D | 3.77 |
| Y12A | 3.34 |
| S21K | 3.24 |
| I19F | 2.21 |

This collection of values is drawn from the supplement of paper PMC10567573.
